Molecular target: recombinant PRL-3 (Homo sapiens, UniProt O75365)
Construct: 6xHis (N, cleaved yes); made in house; host or cells: E. coli One Shot BL21 Star
Sequence (O75365 whole entry): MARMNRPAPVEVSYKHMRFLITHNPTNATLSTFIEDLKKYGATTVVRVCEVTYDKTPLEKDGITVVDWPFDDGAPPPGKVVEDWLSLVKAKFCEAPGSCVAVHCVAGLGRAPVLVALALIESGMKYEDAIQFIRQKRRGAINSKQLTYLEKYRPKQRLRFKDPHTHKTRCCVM
Assay: In vitro phosphatase assay (DiFMUP hydrolysis), PRL-3
Assay type: biochemical
Conditions: FDA-approved drug screen; compared to DMSO
Structures can show the parent of a compound that is named as a salt.
Use 1 (yes) when the recorded % Phosphatase Activity (compared to DMSO) PRL-3 is no lower than 80%; use 0 (no) when it is lower.

Compound	Group label
CN(C)CCOC(C)(c1ccccc1)c1ccccn1 (centres unmarked) [Doxylamine Succinate]	0 (no)
CC(O)(P(=O)(O)O)P(=O)(O)O [Etidronate]	1 (yes)
CO[C@H]1/C=C/O[C@@]2(C)Oc3c(C)c(O)c4c(O)c(c(/C=N/N5CCN(C6CCCC6)CC5)c(O)c4c3C2=O)NC(=O)/C(C)=C\C=C\[C@H](C)[C@H](O)[C@@H](C)[C@@H](O)[C@@H](C)[C@H](OC(C)=O)[C@@H]1C	0 (no)
CCCCCCCCCCCC[N+](C)(C)CCOc1ccccc1 [Domiphen Bromide]	1 (yes)
COC(=O)C1=C(C)NC(C)=C(C(=O)OCC(C)C)C1c1ccccc1[N+](=O)[O-] (centres unmarked)	1 (yes)
CO[C@@H]1[C@@H](OC(N)=O)[C@@H](O)[C@H](Oc2ccc3c(O)c(NC(=O)c4ccc(O)c(CC=C(C)C)c4)c(=O)oc3c2C)OC1(C)C [Novobiocin Sodium]	0 (no)
Cl.NCC(=O)CCC(=O)O [5-Aminolevulinic acid HCl]	1 (yes)
CC(C)C[C@H](NC(=O)[C@H](Cc1ccccc1)NC(=O)c1cnccn1)B(O)O	1 (yes)
CC(C)[N+]1(C)[C@@H]2CC[C@H]1C[C@@H](OC(=O)C(CO)c1ccccc1)C2 (some centres unmarked) [Ipratropium Bromide]	1 (yes)
Cl.NCCCC(N)(C(=O)O)C(F)F.O (centres unmarked) [Eflornithine hydrochloride hydrate]	1 (yes)
CN(C)/N=N/c1[nH]cnc1C(N)=O	0 (no)
CNC[C@H](O)[C@@H](O)[C@H](O)[C@H](O)CO	1 (yes)
CN(C)C(=O)Oc1ccc[n+](C)c1 [Pyridostigmine Bromide]	0 (no)
Nc1ccn([C@@H]2O[C@H](CO)[C@@H](O)C2(F)F)c(=O)n1 [Gemcitabine HCl]	1 (yes)
C[N+](C)(C)CC(O)CC(=O)O.[Cl-] (racemic) [DL-Carnitine HCl]	1 (yes)
Oc1ccc(OCc2ccccc2)cc1	0 (no)
COc1ccccc1Oc1c(NS(=O)(=O)c2ccc(C(C)(C)C)cc2)nc(-c2ncccn2)nc1OCCO [Bosentan Hydrate]	1 (yes)
CNC(=O)c1ccccc1Sc1ccc2c(/C=C/c3ccccn3)n[nH]c2c1	1 (yes)
Cc1cn(-c2cc(NC(=O)c3ccc(C)c(Nc4nccc(-c5cnccn5)n4)c3)cc(C(F)(F)F)c2)cn1	1 (yes)
CNCC[C@@H](Oc1ccccc1C)c1ccccc1 [Atomoxetine HCl]	1 (yes)
C=C1c2cccc(O)c2C(=O)C2=C(O)[C@]3(O)C(=O)C(C(N)=O)=C(O)[C@@H](N(C)C)[C@@H]3[C@@H](O)[C@H]12 [Methacycline HCl]	1 (yes)
CC(=O)O[C@@]12CO[C@@H]1C[C@H](O)[C@@]1(C)C(=O)[C@H](O)C3=C(C)[C@@H](OC(=O)[C@H](O)[C@@H](NC(=O)OC(C)(C)C)c4ccccc4)C[C@@](O)([C@@H](OC(=O)c4ccccc4)[C@H]21)C3(C)C [Docetaxel]	0 (no)
CN1C(C(=O)Nc2ccccn2)=C(O)c2ccccc2S1(=O)=O	0 (no)
Cc1ccc(-n2nc(C(C)(C)C)cc2NC(=O)Nc2ccc(OCCN3CCOCC3)c3ccccc23)cc1	1 (yes)
COCCCOc1cc(C[C@@H](C[C@H](N)[C@@H](O)C[C@H](C(=O)NCC(C)(C)C(N)=O)C(C)C)C(C)C)ccc1OC [Aliskiren Hemifumarate]	1 (yes)
